- Test system: LXRa homodimer (NR concentration 270 nM)
- measurement_description: PBM binding z-score (relative to random genomic background probes); higher = stronger binding; sequences stand for … in GC…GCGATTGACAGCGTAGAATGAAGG
Categorized via PBM binding z-score: low bin = under 0.1, mid bin = from 0.1 up to 0.6, high bin = 0.6 and over

{"input_sequence": "TAGCCTAGGTCAGATCAGGCCAGTATACGCTATA", "tgt": "LXRa homodimer (NR concentration 270 nM)", "answer_label": "low bin"}
{"input_sequence": "GGAACGAGGGCATTCGAGTTTATAGCATGGCGAT", "tgt": "LXRa homodimer (NR concentration 270 nM)", "answer_label": "mid bin"}
{"input_sequence": "CTCGAAAGGTCGTGCTCAGGTGGGTATACCAAAC", "tgt": "LXRa homodimer (NR concentration 270 nM)", "answer_label": "mid bin"}
{"input_sequence": "ACTCGGAGGACAAAGGTCAGATCTACGCCAGTGA", "tgt": "LXRa homodimer (NR concentration 270 nM)", "answer_label": "high bin"}
{"input_sequence": "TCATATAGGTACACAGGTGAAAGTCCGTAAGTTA", "tgt": "LXRa homodimer (NR concentration 270 nM)", "answer_label": "mid bin"}
{"input_sequence": "ATCTCTAGGTAACAAGTTCTGTGAAAGAGAGGAC", "tgt": "LXRa homodimer (NR concentration 270 nM)", "answer_label": "mid bin"}

# input Where would `ATCGAAAGGTCGAAGGTGAGTATCCCCACCCGAA` land among the classes by reported PBM binding z-score?
# output mid bin

# input Which class is correct for the following sequence? `CCTTCTGGGCCACGAAAGGTCATTGATTCAGTGA`
# output high bin

# input Band for `GATACAGGGTCAAGGCTAGAGTACGCGTATTGAT` ?
# output mid bin

# input Classify this sequence: `TGTCAAAGTTCAAAGGGAACGTAAGTATCCACAC`
# output high bin

# input Hi there! Could you help me figure out the category for `CCTAGCAGGCTAATCTGGGTCACTCAAGGCTTGA` please?
# output low bin
